pIC50: −log10 of the molar value.
Heads up, these compounds all have pIC50 values measured for Human platelet cyclic AMP phosphodiesterase (PDE3) (Homo sapiens).

Prompt: Fill in the recorded pIC50 for this compound, with Human platelet cyclic AMP phosphodiesterase (PDE3) (Homo sapiens) as test system: CC(C)NCC(O)COc1ccc(COCCCOc2ccc(C3=NNC(=O)CC3)cc2Cl)cc1 (centres unmarked) [Compound 31a]
Sequence (Q14432 whole entry): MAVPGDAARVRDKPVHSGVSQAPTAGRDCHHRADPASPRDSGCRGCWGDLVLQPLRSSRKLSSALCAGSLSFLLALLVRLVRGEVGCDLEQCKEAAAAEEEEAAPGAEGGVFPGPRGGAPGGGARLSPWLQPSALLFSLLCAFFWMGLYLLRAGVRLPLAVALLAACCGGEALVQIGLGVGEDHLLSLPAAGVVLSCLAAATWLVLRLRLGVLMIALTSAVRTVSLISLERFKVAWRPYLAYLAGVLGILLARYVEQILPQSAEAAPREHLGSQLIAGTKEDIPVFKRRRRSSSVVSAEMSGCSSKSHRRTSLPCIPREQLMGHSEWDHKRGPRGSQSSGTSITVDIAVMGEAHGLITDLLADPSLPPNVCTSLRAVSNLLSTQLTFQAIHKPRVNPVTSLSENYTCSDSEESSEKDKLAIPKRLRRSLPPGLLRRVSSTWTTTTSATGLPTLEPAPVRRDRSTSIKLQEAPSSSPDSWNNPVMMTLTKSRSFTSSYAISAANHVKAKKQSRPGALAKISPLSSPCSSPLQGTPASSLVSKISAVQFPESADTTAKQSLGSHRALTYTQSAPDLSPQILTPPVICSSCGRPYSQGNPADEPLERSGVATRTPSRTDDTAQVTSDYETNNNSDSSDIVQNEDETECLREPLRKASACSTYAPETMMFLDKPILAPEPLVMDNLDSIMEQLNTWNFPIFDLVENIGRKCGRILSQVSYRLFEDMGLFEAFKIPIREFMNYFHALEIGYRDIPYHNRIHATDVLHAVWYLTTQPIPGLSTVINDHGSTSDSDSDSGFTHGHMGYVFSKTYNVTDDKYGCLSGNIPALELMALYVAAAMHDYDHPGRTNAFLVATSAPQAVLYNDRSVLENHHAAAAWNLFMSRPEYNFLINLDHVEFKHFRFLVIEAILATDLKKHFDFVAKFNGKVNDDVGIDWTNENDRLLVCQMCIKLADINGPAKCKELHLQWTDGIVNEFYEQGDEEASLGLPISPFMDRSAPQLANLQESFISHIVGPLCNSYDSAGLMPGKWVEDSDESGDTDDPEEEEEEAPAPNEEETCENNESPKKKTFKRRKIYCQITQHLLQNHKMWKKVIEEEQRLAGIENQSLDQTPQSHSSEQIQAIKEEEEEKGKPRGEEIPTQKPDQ
Completion: > 6.00

Prompt: Fill in the recorded pIC50 for this compound, with Human platelet cyclic AMP phosphodiesterase (PDE3) (Homo sapiens) as test system: CC(C)(C)NCC(O)COc1ccc(CNC(=O)COc2ccc(C3=NNC(=O)CC3)cc2Cl)cc1 (centres unmarked) [Compound 17b]
Completion: > 6.00

Prompt: Fill in the recorded pIC50 for this compound, with Human platelet cyclic AMP phosphodiesterase (PDE3) (Homo sapiens) as test system: CC(C)NC[C@H](O)COc1ccc(C(=O)NCCNC(=O)COc2ccc(C3=NNC(=O)CC3)cc2Cl)cc1 [Compound 12a]
Completion: > 6.00

Prompt: Fill in the recorded pIC50 for this compound, with Human platelet cyclic AMP phosphodiesterase (PDE3) (Homo sapiens) as test system: CC(C)NC[C@H](O)COc1ccc(CCC(=O)NCCNC(=O)COc2ccc(C3=NNC(=O)CC3)cc2Cl)cc1
Completion: > 7.00

Prompt: Fill in the recorded pIC50 for this compound, with Human platelet cyclic AMP phosphodiesterase (PDE3) (Homo sapiens) as test system: CC(C)(C)NCC(O)COc1ccc(CCNC(=O)COc2ccc(C3=NNC(=O)CC3)cc2Cl)cc1 (centres unmarked) [Compound 17d]
Completion: > 7.00
